# TARGET_OR_TEST_SYSTEM: T1, human PVRIG-mFc protein (Acro, PVG-H5253) (human, UniProt Q6DKI7 41-171, limits assumed)
# T1 construct: extracellular domain; Bought protein; also called PVRIG-ECD-mFc; not shown: mouse Fc tag of the bought protein
# T1 sequence (looked up): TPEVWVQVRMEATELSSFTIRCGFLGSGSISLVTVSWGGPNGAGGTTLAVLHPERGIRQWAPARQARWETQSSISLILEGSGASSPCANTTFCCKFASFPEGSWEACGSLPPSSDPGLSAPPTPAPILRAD
# PROTOCOL_DETAILS: FACS blocking of PVRIG-mFc binding to CHO-K1-CD112 cells; competitor CD112
MEASURE_NAME: % IC50 to COM701-hIgG4 (%)
Give bare numbers, in %.

Consider the worked cases shown below.
PVRIG-A118-H6 (Fc fusion, VHH-human IgG1 Fc format is stated for the parental VHH antibodies; not restated for the humanized variants; also called A118.VH6; not shown: human IgG1 hinge-CH2-CH3 (Fc)) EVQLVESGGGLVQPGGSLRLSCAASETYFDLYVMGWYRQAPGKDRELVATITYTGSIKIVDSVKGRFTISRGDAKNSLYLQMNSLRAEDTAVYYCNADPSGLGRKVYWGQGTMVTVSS : 145
PVRIG-A118-H7 (Fc fusion, VHH-human IgG1 Fc format is stated for the parental VHH antibodies; not restated for the humanized variants; also called A118.VH7; not shown: human IgG1 hinge-CH2-CH3 (Fc)) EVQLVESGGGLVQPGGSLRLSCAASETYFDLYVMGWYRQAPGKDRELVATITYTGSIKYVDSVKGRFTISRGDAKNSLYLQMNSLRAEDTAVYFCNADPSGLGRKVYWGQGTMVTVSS : 143

Please report % IC50 to COM701-hIgG4 for every entry that follows.
1. PVRIG-A50-H1c (Fc fusion, VHH-human IgG1 Fc format is stated for the parental VHH antibodies; not restated for the humanized variants; also called A50.VH1c; not shown: human IgG1 hinge-CH2-CH3 (Fc)) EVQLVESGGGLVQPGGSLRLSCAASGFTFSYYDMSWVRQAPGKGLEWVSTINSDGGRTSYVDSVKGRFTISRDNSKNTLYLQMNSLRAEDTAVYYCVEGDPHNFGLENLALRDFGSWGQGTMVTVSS
2. PVRIG-A105-H3a (Fc fusion, VHH-human IgG1 Fc format is stated for the parental VHH antibodies; not restated for the humanized variants; also called A105.VH3a; not shown: human IgG1 hinge-CH2-CH3 (Fc)) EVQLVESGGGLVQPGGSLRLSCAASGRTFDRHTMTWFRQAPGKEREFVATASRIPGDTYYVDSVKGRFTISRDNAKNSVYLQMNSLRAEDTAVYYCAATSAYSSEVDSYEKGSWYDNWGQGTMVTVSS

Key:
1: 122; 2: 3060
